Target: CDK5 complexed with p25 (Homo sapiens, UniProt Q00535)
Sequence (Q00535 whole entry): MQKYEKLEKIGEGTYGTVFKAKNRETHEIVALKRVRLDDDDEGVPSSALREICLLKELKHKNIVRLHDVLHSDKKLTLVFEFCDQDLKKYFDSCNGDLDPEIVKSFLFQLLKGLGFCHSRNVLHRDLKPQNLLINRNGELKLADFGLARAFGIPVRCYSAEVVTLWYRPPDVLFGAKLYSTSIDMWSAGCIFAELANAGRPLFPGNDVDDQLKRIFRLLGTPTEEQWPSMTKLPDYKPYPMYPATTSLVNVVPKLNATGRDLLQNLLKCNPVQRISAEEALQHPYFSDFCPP
Sequence (Q15078 99-307 partner limits assumed): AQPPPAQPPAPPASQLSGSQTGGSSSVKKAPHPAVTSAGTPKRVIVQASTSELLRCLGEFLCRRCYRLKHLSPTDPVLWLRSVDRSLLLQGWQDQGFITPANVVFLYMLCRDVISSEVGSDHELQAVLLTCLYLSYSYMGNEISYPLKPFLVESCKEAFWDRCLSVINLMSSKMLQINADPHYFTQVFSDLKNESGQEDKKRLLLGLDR
Test: Cyclin dependent kinase activity assay, phosphorylation of synthetic peptide PKTPKKAKKLRRR
Details: CDK5 complexed with p25, 0.1 mM ATP; read-out: CDK 5 Activity*
pIC50: −log10 of the molar value.
Reported pIC50 is given for each of the following molecules.

Reference set (8 entries):
Nc1nc(N[C@H](CO)Cc2ccccc2)cc(-c2cc(-c3ccc(O)cc3)ccc2O)n1 [Example 87]: > 6.30
Nc1nc(NCCCCCO)cc(-c2cc(-c3ccc(O)cc3)ccc2O)n1 [Example 77]: > 6.30
Nc1nccc(-c2cc(-c3ccc(C=O)o3)ccc2O)n1 [Example 59]: 5.70 to 6.30
Nc1ccc(-c2cc(-c3cc(-c4ccc(O)cc4)ccc3O)nc(N)n2)cc1 [Example 90]: > 6.30
Nc1nc(-c2cc(-c3ccc(O)cc3)ccc2O)cs1 [Example 61]: > 6.30
Nc1nccc(-c2cc(-c3ccc[nH]3)ccc2O)n1 [Example 69]: > 6.30
Nc1nc(NCC(O)CO)cc(-c2cc(-c3ccc(O)cc3)ccc2O)n1 (stereo not drawn) [Example 56]: > 6.30
NC(=S)N/N=C/c1cc(-c2ccc(CO)cc2)ccc1O [Example 10]: < 5.30

API: the following record is the query input.
Entry NC(=S)N/N=C/c1cc(-c2cncnc2)ccc1O [Example 32] — recorded pIC50 = 5.30 to 5.70

Origin of values: patent US20030187007A1
